Conditions: read-out: Cytotoxicity 48 h LC50; 48 h
assay.readout: CC50

Documented CC50 of CCC(=O)OCOc1cc(O)c2c(=O)c(-c3ccc(O)cc3)coc2c1 [IFG-036] : > 30 µM

Briefly, CC50 measured for CCCC[N+](CCCC)(CCCC)CCCC.O=C([O-])CCCC(=O)Oc1cc(O)c2c(=O)c(-c3ccc(O)cc3)coc2c1 [IFG-038] : > 30 µM

Per the records, this molecule ( CCCC[N+](CCCC)(CCCC)CCCC.O=C([O-])COc1cc(O)c2c(=O)c(-c3ccc(O)cc3)coc2c1 [IFG-074] ) has CC50 equal to 32.8 µM
